biological target: human NaV 1.8 (Homo sapiens); assay: E-VIPR assay for detecting and measuring NaV inhibition properties; format: cell-based; details: E-VIPR assay conducted in the presence of human serum; HEK cells expressing truncated human NaV 1.8; read-out: IC50
pIC50: −log10 of the molar value.
PROPERTY NAME: pIC50

Examples with their reported pIC50 follow.
[
  {
    "MOLECULE": "COc1c(C(F)(F)F)ccc(Oc2ccc(F)cc2F)c1C(=O)Nc1ccnc(C(N)=O)c1 [Compound 62]",
    "pIC50": 6.36
  },
  {
    "MOLECULE": "COc1c(Oc2ccc(C(F)(F)F)c(C)c2C(=O)Nc2ccnc(C(N)=O)c2)ccc(F)c1F [Compound 120]",
    "pIC50": 7.70
  },
  {
    "MOLECULE": "COc1cc(Oc2ccc(OC(F)(F)F)c(F)c2OC)c(C(=O)Nc2ccnc(C(N)=O)c2)c(F)c1C(F)(F)F [Compound 320]",
    "pIC50": 9.40
  },
  {
    "MOLECULE": "COc1cc(OC(F)(F)F)ccc1Oc1ccc(OC(F)(F)F)c(F)c1C(=O)Nc1ccnc(C(N)=O)c1 [Compound 280]",
    "pIC50": 8.40
  },
  {
    "MOLECULE": "Cc1c(C(F)(F)F)ccc(Oc2ccc(OC(F)(F)F)cc2)c1C(=O)Nc1ccnc(C(N)=O)c1 [Compound 123]",
    "pIC50": 7.28
  }
]

1 = NC(=O)c1cc(NC(=O)c2c(Oc3ccc(Cl)cc3F)ccc(C(F)(F)F)c2F)ccn1 [Compound 51]
2 = COc1c(C(F)(F)F)ccc(Oc2ccc(OC(F)(F)F)cc2Cl)c1C(=O)Nc1ccnc(C(N)=O)c1 [Compound 66]
Lookup: Larger number for pIC50: 1 , or 2 ? Give the chosen item's label as your response.
Found: 2
(2: 7.80, 1: 6.70)

---

target: human NaV 1.8 (Homo sapiens, UniProt Q9Y5Y9); experiment: E-VIPR assay for detecting and measuring NaV inhibition properties; format: cell-based; conditions: E-VIPR assay conducted in the presence of human serum; HEK cells expressing truncated human NaV 1.8; read-out: IC50
Sequence (Q9Y5Y9 whole entry, looked up, the tested form may be a part): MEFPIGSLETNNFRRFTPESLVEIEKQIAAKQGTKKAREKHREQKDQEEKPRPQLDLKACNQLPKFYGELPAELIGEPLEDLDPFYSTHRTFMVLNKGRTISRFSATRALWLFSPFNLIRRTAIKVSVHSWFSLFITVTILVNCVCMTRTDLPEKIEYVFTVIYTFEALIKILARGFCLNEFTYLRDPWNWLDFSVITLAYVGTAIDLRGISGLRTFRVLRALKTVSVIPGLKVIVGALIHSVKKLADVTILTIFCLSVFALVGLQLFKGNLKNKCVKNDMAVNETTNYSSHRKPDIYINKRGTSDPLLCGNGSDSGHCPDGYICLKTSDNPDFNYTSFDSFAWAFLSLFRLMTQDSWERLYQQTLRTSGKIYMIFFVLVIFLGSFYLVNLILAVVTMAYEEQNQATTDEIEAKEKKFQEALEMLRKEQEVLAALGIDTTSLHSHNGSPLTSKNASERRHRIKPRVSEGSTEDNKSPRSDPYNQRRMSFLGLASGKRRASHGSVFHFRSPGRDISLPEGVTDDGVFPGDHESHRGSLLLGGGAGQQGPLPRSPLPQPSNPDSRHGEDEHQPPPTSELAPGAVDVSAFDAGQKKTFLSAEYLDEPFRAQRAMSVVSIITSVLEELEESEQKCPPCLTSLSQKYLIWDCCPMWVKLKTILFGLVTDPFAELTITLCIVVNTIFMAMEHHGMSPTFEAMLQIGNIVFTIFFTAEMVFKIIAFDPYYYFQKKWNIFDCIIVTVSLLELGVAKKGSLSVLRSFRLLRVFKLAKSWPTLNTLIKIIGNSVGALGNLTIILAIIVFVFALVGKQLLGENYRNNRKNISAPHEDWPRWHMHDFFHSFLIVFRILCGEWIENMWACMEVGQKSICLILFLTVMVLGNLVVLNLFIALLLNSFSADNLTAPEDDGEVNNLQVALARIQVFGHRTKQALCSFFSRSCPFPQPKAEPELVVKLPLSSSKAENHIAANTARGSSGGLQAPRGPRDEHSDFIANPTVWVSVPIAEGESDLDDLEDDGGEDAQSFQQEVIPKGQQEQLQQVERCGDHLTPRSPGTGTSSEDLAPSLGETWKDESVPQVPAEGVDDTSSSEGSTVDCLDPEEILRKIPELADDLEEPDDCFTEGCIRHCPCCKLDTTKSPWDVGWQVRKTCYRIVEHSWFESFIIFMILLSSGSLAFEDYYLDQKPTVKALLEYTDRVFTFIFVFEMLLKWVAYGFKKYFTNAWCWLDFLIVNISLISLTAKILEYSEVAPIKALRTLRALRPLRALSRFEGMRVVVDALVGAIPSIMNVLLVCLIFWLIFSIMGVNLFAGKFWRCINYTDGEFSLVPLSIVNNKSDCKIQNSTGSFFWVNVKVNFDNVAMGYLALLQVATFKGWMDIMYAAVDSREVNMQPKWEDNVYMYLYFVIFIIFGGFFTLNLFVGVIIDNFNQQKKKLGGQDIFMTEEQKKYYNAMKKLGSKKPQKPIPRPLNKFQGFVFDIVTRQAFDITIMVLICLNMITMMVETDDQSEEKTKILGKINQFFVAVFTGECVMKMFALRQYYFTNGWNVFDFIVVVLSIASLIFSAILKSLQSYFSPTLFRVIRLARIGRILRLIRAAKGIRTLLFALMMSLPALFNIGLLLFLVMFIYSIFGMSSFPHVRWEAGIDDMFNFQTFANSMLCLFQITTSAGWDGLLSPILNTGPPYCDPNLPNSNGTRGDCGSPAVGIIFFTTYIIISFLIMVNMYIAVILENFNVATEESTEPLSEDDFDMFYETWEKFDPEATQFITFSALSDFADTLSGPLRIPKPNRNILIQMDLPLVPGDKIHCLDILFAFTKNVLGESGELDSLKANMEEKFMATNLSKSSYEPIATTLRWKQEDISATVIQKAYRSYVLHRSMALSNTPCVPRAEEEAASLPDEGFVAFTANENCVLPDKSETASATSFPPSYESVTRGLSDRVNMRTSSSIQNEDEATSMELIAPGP
PROPERTY NAME: IC50 (nM)

Consider the worked cases shown below.
[
  {
    "COMPOUND": "[2H]C([2H])([2H])Oc1cc(OC(F)(F)F)ccc1Oc1cc(-c2ccc(C(F)(F)F)cc2)cc(F)c1C(=O)Nc1ccnc(C(N)=O)c1 [Compound 93]",
    "READOUT UNIT": "nM",
    "IC50": 13
  },
  {
    "COMPOUND": "Cc1c(C(F)(F)F)ccc(Oc2ccc(OC(F)(F)F)cc2Cl)c1C(=O)Nc1ccnc(C(N)=O)c1 [Compound 146]",
    "READOUT UNIT": "nM",
    "IC50": 17
  },
  {
    "COMPOUND": "COc1c(Oc2cc(F)c(F)c(F)c2C(=O)Nc2ccnc(C(N)=O)c2)ccc(OC(F)(F)F)c1F [Compound 307]",
    "READOUT UNIT": "nM",
    "IC50": 5.9
  },
  {
    "COMPOUND": "[2H]C([2H])([2H])Oc1cc(OC(F)(F)F)ccc1Oc1ccc(C(F)(F)F)cc1C(=O)Nc1ccc(C(N)=O)nc1 [Compound 106]",
    "READOUT UNIT": "nM",
    "IC50": 1400
  },
  {
    "COMPOUND": "COc1cc(OC(F)(F)F)ccc1Oc1cc2c(c(C)c1C(=O)Nc1ccc(C(N)=O)nc1)OC(F)(F)O2 [Compound 203]",
    "READOUT UNIT": "nM",
    "IC50": 140
  }
]

a = CNC(=O)c1cc(NC(=O)c2c(Oc3ccc(OC(F)(F)F)cc3OC)cnc(C(F)(F)F)c2OC)ccn1 [Compound 273]
b = COc1cc(C(F)(F)C(F)(F)F)ccc1Oc1ccc(C(F)(F)F)c(F)c1C(=O)Nc1ccc(C(N)=O)nc1 [Compound 210]
c = [2H]C([2H])([2H])Oc1cc(OC(F)(F)F)ccc1Oc1cc(C2CCCC2)cc(F)c1C(=O)Nc1ccnc(C(N)=O)c1 [Compound 96]
d = COc1cc(Oc2ccc(F)c(F)c2OC)c(C(=O)Nc2ccnc(C(N)=O)c2)c(F)c1C(F)(F)F [Compound 299]
Lookup: Ranking field: IC50; order: falling. Your task in answering is to list the labels in the requested order.
Found: b, a, c, d

---

Target: human NaV 1.8 (Homo sapiens, UniProt Q9Y5Y9)
Assay: E-VIPR assay for detecting and measuring NaV inhibition properties
Type: cell-based
Settings: E-VIPR assay conducted in the presence of human serum; HEK cells expressing truncated human NaV 1.8; read-out: IC50
Description: Sodium ion channels are voltage-dependent proteins that can be activated by inducing membrane voltage changes by applying electric fields. The electrical stimulation instrument and methods of use, referred to as E-VIPR, are described in International Publication No. WO 2002/008748 A3 and C.-J. Huang et al. Characterization of voltage-gated sodium channel blockers by electrical stimulation and fluorescence detection of membrane potential, 24 Nature Biotech. […]
pIC50: −log10 of the molar value.
PROPERTY NAME: pIC50

[
  {
    "COMPOUND": "COc1cc(OC(F)(F)F)ccc1Oc1ccc(C2CC2)c(C)c1C(=O)Nc1cc(C(N)=O)ncc1C [Compound 198]",
    "MEASURED": 7.82
  }
]

A = COc1cc(OC(F)(F)F)ccc1Oc1ccc(C2CCC2)c(C)c1C(=O)Nc1ccnc(C(N)=O)c1 [Compound 257]
B = NC(=O)c1ccc(NC(=O)c2c(Oc3ccc(OC(F)(F)F)c(F)c3Cl)ccc(C(F)(F)F)c2F)cn1 [Compound 297]
Lookup: Consider entries A and B . Which has the numerically lower pIC50? Identify your selection by its label.
Found: B

---

target: human NaV 1.8 (Homo sapiens, UniProt Q9Y5Y9); assay: E-VIPR assay for detecting and measuring NaV inhibition properties; format: cell-based; settings: E-VIPR assay conducted in the presence of human serum; HEK cells expressing truncated human NaV 1.8; read-out: IC50
pIC50: −log10 of the molar value.
PROPERTY NAME: pIC50

[
  {
    "QUERY SMILES": "COc1cc(OC(F)(F)F)ccc1Oc1ccc(Cl)c(C)c1C(=O)Nc1ccnc(C(N)=O)c1",
    "MEASUREMENT TARGET": "human NaV 1.8 (Homo sapiens, UniProt Q9Y5Y9)",
    "pIC50": 8.10
  },
  {
    "QUERY SMILES": "COc1c(C(F)(F)F)ccc(Oc2ccc(F)c(F)c2)c1C(=O)Nc1ccnc(C(N)=O)c1",
    "MEASUREMENT TARGET": "human NaV 1.8 (Homo sapiens, UniProt Q9Y5Y9)",
    "pIC50": 6.38
  },
  {
    "QUERY SMILES": "COc1cc(F)ccc1Oc1ccc(C(F)(F)F)cc1C(=O)Nc1ccnc(C(N)=O)c1",
    "MEASUREMENT TARGET": "human NaV 1.8 (Homo sapiens, UniProt Q9Y5Y9)",
    "pIC50": 6.29
  }
]

a = COc1c(Oc2ccc(OC(F)(F)F)c(F)c2C(=O)Nc2ccnc(C(N)=O)c2)ccc(OC(F)(F)F)c1F
b = COc1cc(OC(F)(F)F)ccc1Oc1cc(C2CC2)c(C2CC2)nc1C(=O)Nc1ccnc(C(N)=O)c1
c = COc1cc(OC(F)(F)F)ccc1Oc1ccc(C(F)(F)F)c(F)c1C(=O)Nc1cnc(C(N)=O)nc1
d = COc1cc(OC(F)(F)F)ccc1Oc1ccc(C(F)(F)F)c(F)c1C(=O)Nc1cc[n+]([O-])c(C(N)=O)c1
e = NC(=O)c1cc(NC(=O)c2cc(C(F)(F)F)ccc2Oc2ccc(F)c(Cl)c2)ccn1
Lookup: Give the ascending ranking of the items by reported pIC50. List the labels according to the requested ordering.
Found: e, b, c, a, d

---

target: human NaV 1.8 (Homo sapiens, UniProt Q9Y5Y9); assay: E-VIPR assay for detecting and measuring NaV inhibition properties; type: cell-based; settings: E-VIPR assay conducted in the presence of human serum; HEK cells expressing truncated human NaV 1.8; read-out: IC50
pIC50: −log10 of the molar value.
PROPERTY NAME: pIC50

[
  {
    "MOLECULE": "Cc1c(Oc2ccc(C(F)(F)F)c(F)c2C(=O)Nc2ccnc(C(N)=O)c2)ccc(F)c1F [Compound 42]",
    "pIC50": 8.10
  },
  {
    "MOLECULE": "COc1cc(OC(F)(F)F)ccc1Oc1cc(C(F)(F)F)c(OC)c(F)c1C(=O)Nc1ccnc(C(N)=O)c1 [Compound 284]",
    "pIC50": 8.40
  },
  {
    "MOLECULE": "Cc1cc(OC(F)(F)F)ccc1Oc1ccc(Cl)c(F)c1C(=O)Nc1ccnc(C(N)=O)c1 [Compound 286]",
    "pIC50": 7.85
  },
  {
    "MOLECULE": "COc1c(Oc2ccc(C(F)(F)F)c(C)c2C(=O)Nc2ccc(C(N)=O)nc2)ccc(F)c1F [Compound 179]",
    "pIC50": 5.70
  }
]

I = COc1c(Oc2cnc(C(F)(F)F)c(OC)c2C(=O)Nc2cc(C(N)=O)ncc2C)ccc(F)c1F [Compound 302]
II = COc1c(Oc2cc(Cl)c(C)c(F)c2C(=O)Nc2ccnc(C(N)=O)c2)ccc(F)c1F [Compound 373]
III = [2H]C([2H])([2H])Oc1cc(OC(F)(F)F)ccc1Oc1cc(C2=CCOC2)cc(F)c1C(=O)Nc1ccnc(C(N)=O)c1 [Compound 1004]
Lookup: Ordering criterion: pIC50; begin with the maximum. Give me the labels in the order the question wants.
Found: II, III, I
(II: 8.22, III: 7.54, I: 6.55)
